The entries below come with measured Gaussia minus Italica difference values attached.
- ASSAY INFO: DUX4 transcriptional activity inhibition in cells – 293T cells, Gaussia and Italica luciferase, primary screen (AID 1224904)
- EXPERIMENTAL PARAMETERS: 293T-iDUX4 ZSCAN4-Gaussia luciferase reporter, 24 h; measured here: selective DUX4 reporter inhibition; stronger effect = lower value; concentration not given here
About 290 (0.78%) of roughly 37,000 compounds were called active. About 10% were inconclusive and are not listed. Many of the other results were omitted from the sample, so actives are more common in it than they were.

{"SMI": "O=C(NCC(F)(F)F)[C@H]1[C@H](CO)[C@H]2Cn3c(ccc(-c4ccncc4)c3=O)[C@H]2N1Cc1ccncc1", "Gaussia minus Italica difference, %": 7.77}
{"SMI": "COc1ccc2c3c(n(C)c2c1)[C@@H](CO)N(C(=O)C1CC1)CC31CN(C(=O)C2CCOCC2)C1", "Gaussia minus Italica difference, %": 7.12}
{"SMI": "COCC(=O)Nc1ccc2c(c1)OC[C@@H](C)N(C(=O)CC1CC1)C[C@@H](C)[C@@H](OC)CN(C)C2=O", "Gaussia minus Italica difference, %": -1.65}
{"SMI": "O=C(C1CCCC1)N1CC2(C1)[C@H](c1ccccc1)[C@H](CO)N2CCC(F)(F)F", "Gaussia minus Italica difference, %": -3.36}
